Entry source: paper PMC2895358

Notes on Ki obtained with UniProtKB P25779.
Sequence (P25779 123-337 limits assumed): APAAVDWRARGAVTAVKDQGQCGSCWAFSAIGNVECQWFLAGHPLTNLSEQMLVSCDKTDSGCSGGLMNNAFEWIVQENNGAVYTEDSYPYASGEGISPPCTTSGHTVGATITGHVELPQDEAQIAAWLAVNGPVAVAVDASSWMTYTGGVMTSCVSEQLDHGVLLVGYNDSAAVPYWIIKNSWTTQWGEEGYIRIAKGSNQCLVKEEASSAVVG
measurementType: Ki

> print(dat)
                                   compound  measurementtype  measuredresult
1  O=C(CNC(=O)c1ccccc1)OC(C(=O)Nc1cc(C(F)(F)F)ccc1Cl)c1ccccc1 (centres unmarked)               Ki           65 nM
2  COc1ccc(Cl)cc1NC(=O)COC(=O)C(CC(C)C)N1C(=O)C2CC=CCC2C1=O (centres unmarked)               Ki         1600 nM
